Please go through the items and note down their GI50.
Test system: K-562 leukemia
Test: NCI tumour cell line growth inhibition, 48 h

Fill in the blank: the reported GI50 of COc1cc(C2c3cc4c(cc3C(O)C(CO)C2CO)OCO4)cc(OC)c1OC (stereo unspecified) is ____. 0.432 µM

Quick check: GI50 of CCN(CC)c1nc(-c2ccc(Cl)cc2Cl)nc2ccccc12 ? 30.8 µM

Which GI50 is listed for Ic1ccc(-n2nnnc2-c2cnoc2-c2ccccc2)cc1 ? 29.2 µM

Requested field: GI50. Item: Cc1csc(Nc2nc(-c3cccc(Br)c3)nc(C(Cl)(Cl)Cl)n2)n1 > 24.9 µM

Requested field: GI50. Item: COc1ccc(-c2oc(=O)ccc2-c2cc(OC)c(OC)c(OC)c2)cc1F 4.08 µM

GI50 for CCOc1ccc2nc(S/C(=C/C=C(C#N)C#N)c3ccc(C)cc3)sc2c1 ? 5.28 µM

* * *

System: NCI-H522 lung
Test: NCI tumour cell line growth inhibition, 48 h
Give GI50 for every item shown.

Report GI50 for C[C@H]1Oc2cc(cnc2N)-c2c(nn(C)c2C#N)CN(C)C(=O)c2ccc(F)cc21 tested on NCI-H522 lung. 57 µM

Param readout= GI50; system= NCI-H522 lung; entry= COC12C=C/C(=C(/C(=O)OCc3ccncc3)C(=O)CCCCCCCCC3(OC)C=C/C(=C(/C(=O)OCc4ccncc4)C(=O)CCCCCCCC1)O3)O2 ; returns value. 0.564 µM

So what GI50 did CCCn1c(N)c(C(=O)N/N=C(/C)c2cc3cccc(OC)c3o2)sc1=S get with NCI-H522 lung? 51.6 µM

Value wanted: GI50 (NCI-H522 lung) of entry N=c1ccn2c(n1)OC1C(O)C(CO)OC12 (stereo not drawn) > 100 µM

Param readout= GI50; system= NCI-H522 lung; entry= CCOc1ccc2nc(S/C(=C/C=C(C#N)C#N)c3ccc(C)cc3)sc2c1 ; returns value. 20.8 µM

Hi! What's the reported GI50 for CCN(CC)c1nc(-c2ccc(Cl)cc2Cl)nc2ccccc12 on NCI-H522 lung? 29.2 µM

// fetch NCI-H522 lung GI50 for NS(=O)(=O)c1ccc(N(/C=C/C(=O)C(F)(F)F)CC(=O)c2ccc(Cl)cc2)cc1 24.3 µM

Give NCI-H522 lung GI50 for CCCCCCNC(=O)c1nc(-c2ccccc2)oc1Cc1ccc(OP(=O)(O)O)cc1 16.1 µM

* * *

System: HOP-62 NSCLC
Test: NCI tumour cell line growth inhibition, 48 h
Kindly state TGI for each of the entries shown.

Request the reported TGI associated with CC(=C\c1ccccc1)/C=C(\C#N)C(N)=O > 10 µM

GET /values?readout=TGI&item= COc1ccc(OC)c(C2Cc3cnc4nc(N)nc(N)c4c3C2)c1 (stereo unspecified) > 100 µM

# lookup: TGI of COC12C=C/C(=C(/C(=O)OCc3ccncc3)C(=O)CCCCCCCCC3(OC)C=C/C(=C(/C(=O)OCc4ccncc4)C(=O)CCCCCCCC1)O3)O2 5.59 µM

Return reported TGI; argument: O=C1/C(=C/c2ccccc2)NC(=S)N1CN1CCOCC1 > 100 µM

Which measured TGI value corresponds to CCc1cccc(C)c1NC(=O)C(=O)Cc1nc2ccccc2o1 ? > 100 µM

Entry under review: COc1cc2c(cc1O)C1C(O)C(O)C=C3CCN(C2)C31 (stereo unspecified) . Reported TGI? 10.9 µM

Give its TGI value. Item: CCCCn1c(C)c2c(c1C)C(=O)N(CC(O)CN1CCc3ccccc3C1)C2=O (stereo unspecified) > 100 µM

Item COc1ccc2oc(-c3cccnc3)cc(=O)c2c1 has what recorded TGI? > 100 µM

For the compound O=C(O)c1cccnc1 , what TGI is on record? > 100 µM

Recorded TGI of COc1ccc(C(O)c2nccn2C)c(OC)c1 (stereo unspecified) , please. > 100 µM

Value lookup for TGI; key = C=CCc1cccc(/C=N/NC(=O)CN2CCN(Cc3ccccc3)CC2)c1O 13.8 µM
